biological target: Cytochrome P450 3A4 (Homo sapiens, UniProt P08684)
Sequence (P08684 whole entry): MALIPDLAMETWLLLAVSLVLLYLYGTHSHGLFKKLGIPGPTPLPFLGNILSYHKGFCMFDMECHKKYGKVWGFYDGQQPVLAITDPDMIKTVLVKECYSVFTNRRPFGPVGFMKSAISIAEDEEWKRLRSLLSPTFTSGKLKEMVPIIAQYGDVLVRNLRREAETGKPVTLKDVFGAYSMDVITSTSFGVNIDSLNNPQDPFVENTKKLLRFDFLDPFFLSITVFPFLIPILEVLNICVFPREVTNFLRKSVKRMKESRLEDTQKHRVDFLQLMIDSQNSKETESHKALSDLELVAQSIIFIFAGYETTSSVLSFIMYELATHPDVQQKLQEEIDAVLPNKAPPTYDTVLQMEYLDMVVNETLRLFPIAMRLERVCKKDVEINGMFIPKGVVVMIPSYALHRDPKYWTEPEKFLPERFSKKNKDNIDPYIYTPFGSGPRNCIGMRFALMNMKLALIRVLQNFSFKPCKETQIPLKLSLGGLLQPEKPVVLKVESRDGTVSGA
Measured Parameter: pIC50
// pIC50: -log10(molar conc.)

These recorded examples may help you get a feel for the data.
CCC1CCCN(c2nc3ccc(Br)cc3c(C(=O)NCC(CCC(=O)O)c3ccccc3Cl)c2C)C1 (single isomer, unassigned; 53)    5.00
CCC1CCCN(c2nc3ccc(Br)cc3c(C(=O)NCC(CCC(=O)O)c3ccccc3Cl)c2C)C1 (single isomer, unassigned; 54)    5.70

Continue with the next molecule.
Task: Given Cc1c(-c2ccccc2)nc2ccc(Br)cc2c1C(=O)NCC(CC(=O)O)c1ccccc1Cl (stereo in doubt; 34) , state its recorded pIC50.
Result: 4.89

These data points were gathered from ChEMBL document CHEMBL4665834.
